meta.source: patent US20260022175A1

Molecular target: T1, hCTLA4-His-BAP (human CTLA4 extracellular region with C-terminal His-tag and BAP-tag) (human, biotin on the BAP-tag)
T1 construct: also called hCTLA4-His-Biotin
T1 sequence (chain, as listed by the source limits assumed): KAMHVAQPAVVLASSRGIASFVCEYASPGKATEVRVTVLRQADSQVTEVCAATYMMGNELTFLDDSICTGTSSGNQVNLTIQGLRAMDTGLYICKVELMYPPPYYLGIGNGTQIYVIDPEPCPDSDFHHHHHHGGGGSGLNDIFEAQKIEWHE
Assay: SPR 37C, ATP 10 µM; ATP 10 µM
EXPERIMENTAL_READOUT: Kd (nM)
State the answer as a number, implicitly in nM.

Quick one: Kd of 04H1207-G1m/04L1086-lam1 (antibody, human IgG1, lambda, V domains shown) VH: EVQLVESGGGLVKPGGSLRLSCAASGFTFSSKTMNWVRQAPGKGLEWVSSISTRSGYIYYAESVKGRFTISRDNAKNSLYLQMNSLRAEDTAVYYCARYGKREDMLWVFDYWGQGTLVTVSS VL: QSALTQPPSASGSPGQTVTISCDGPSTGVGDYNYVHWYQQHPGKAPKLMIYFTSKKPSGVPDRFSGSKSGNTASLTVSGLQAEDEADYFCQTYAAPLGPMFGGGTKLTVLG ?
330
